Some compounds, each annotated with its measured Log 1/MMIC.
- Test system: Mycobacterium kansasii
- methodDescription: in vitro activity against Mycobacterium kansasii (SWK).
- Assay type: functional
Provide a numeric answer; units are not to be included.

Example entries and their recorded answers appear below.
compound: COC(=O)c1cnc(I)cn1
valueType: Log 1/MMIC
measValue: 1.519

compound: CCCCCCCCCCOC(=O)c1cnccn1
valueType: Log 1/MMIC
measValue: 3.723

compound: CCCCCCCCC(C)(CCCC)OC(=O)c1cnc(Cl)cn1 (centres undefined)
valueType: Log 1/MMIC
measValue: 1.346

compound: CCCCCCCCCCOC(=O)c1cnc(F)cn1
valueType: Log 1/MMIC
measValue: 2.451

compound: CCCCCC(C)OC(=O)c1cnc(Cl)cn1 (centres undefined)
valueType: Log 1/MMIC
measValue: 3.313

compound: CCCCCCCCCCCOC(=O)c1cnc(Cl)cn1
valueType: Log 1/MMIC
measValue: 3.717

compound: CCCCOC(=O)c1cnc(Cl)cn1
valueType: Log 1/MMIC
measValue: 2.33

compound: CC(C)COC(=O)c1cnc(Cl)cn1
valueType: Log 1/MMIC
measValue: 2.33

compound: CCCCCCC(CCCCCC)OC(=O)c1cnc(Cl)cn1
valueType: Log 1/MMIC
measValue: 2.834

compound: CCCCCCCCC(CC)OC(=O)c1cnc(Cl)cn1 (centres undefined)
valueType: Log 1/MMIC
measValue: 3.398

Enter reported Log 1/MMIC observed with Mycobacterium kansasii for CCCCCCCCCC(C)OC(=O)c1cnc(Cl)cn1 (centres undefined)
3.097

Enter reported Log 1/MMIC observed with Mycobacterium kansasii for CCCCCCCOC(=O)c1cnc(C)cn1
1.771

Enter reported Log 1/MMIC observed with Mycobacterium kansasii for CCCCCCCCCCCC(C)OC(=O)c1cnc(Cl)cn1 (centres undefined)
3.754

Enter reported Log 1/MMIC observed with Mycobacterium kansasii for CCCCCC(CC)OC(=O)c1cnc(Cl)cn1 (centres undefined)
3.955

Enter reported Log 1/MMIC observed with Mycobacterium kansasii for CCCCCCC(C)OC(=O)c1cnc(Cl)cn1 (centres undefined)
3.035
